measurement.target: PI3Kα H1047R (T47D cells) (Homo sapiens, UniProt P42336, H1047R)
Construct: endogenous in cells; host or cells: T47D cells
Sequence (P42336 whole entry H1047R): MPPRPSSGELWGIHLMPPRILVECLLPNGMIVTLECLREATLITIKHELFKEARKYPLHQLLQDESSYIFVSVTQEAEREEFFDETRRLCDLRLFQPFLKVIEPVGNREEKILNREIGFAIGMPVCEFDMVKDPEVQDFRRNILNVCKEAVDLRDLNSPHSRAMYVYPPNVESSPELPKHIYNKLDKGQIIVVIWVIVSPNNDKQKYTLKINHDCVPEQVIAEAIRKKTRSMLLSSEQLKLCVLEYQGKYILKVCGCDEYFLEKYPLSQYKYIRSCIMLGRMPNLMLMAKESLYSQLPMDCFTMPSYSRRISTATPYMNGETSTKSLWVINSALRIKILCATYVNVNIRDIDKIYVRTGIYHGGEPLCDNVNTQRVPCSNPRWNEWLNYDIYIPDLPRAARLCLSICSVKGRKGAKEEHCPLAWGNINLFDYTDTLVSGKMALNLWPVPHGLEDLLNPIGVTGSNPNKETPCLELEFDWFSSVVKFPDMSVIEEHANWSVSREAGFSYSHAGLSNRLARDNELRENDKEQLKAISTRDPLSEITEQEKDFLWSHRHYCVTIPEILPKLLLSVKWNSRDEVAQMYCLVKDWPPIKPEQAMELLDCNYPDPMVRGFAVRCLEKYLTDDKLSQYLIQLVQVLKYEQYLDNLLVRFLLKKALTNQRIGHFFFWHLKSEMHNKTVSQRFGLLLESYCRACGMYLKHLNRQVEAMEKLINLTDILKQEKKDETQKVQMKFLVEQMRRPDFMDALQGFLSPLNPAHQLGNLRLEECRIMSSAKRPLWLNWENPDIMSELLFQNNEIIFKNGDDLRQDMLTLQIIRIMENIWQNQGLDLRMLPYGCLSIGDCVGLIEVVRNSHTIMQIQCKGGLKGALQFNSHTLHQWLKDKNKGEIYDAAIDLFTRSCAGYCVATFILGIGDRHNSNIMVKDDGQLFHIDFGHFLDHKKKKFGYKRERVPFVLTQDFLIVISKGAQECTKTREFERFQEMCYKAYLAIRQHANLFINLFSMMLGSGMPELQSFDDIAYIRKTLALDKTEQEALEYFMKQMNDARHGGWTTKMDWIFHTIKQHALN
Sequence (P27986 whole entry partner): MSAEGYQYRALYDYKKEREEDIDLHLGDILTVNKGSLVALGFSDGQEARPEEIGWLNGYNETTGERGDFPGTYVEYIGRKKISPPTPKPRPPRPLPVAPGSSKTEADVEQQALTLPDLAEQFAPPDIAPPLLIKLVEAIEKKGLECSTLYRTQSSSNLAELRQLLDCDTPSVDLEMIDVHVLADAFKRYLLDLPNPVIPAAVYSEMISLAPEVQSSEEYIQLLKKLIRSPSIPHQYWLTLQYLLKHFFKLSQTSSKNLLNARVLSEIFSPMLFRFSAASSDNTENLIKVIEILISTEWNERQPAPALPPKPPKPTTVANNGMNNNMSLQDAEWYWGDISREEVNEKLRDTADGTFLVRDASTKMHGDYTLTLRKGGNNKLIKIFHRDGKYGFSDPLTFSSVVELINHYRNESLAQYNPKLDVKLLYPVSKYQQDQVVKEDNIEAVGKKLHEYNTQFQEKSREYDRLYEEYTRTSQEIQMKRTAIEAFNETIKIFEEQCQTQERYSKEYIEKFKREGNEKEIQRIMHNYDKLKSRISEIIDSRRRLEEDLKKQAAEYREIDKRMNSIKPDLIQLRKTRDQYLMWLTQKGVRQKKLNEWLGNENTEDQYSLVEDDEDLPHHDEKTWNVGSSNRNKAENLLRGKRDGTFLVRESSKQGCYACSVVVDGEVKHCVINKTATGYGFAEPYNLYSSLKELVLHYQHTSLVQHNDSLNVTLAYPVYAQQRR
assay: PI3Kα cellular assay: pAKT HTRF in T47D cells after EGF stimulation
Type: cell-based
measurement.context: selectivity of T47D (H1047R) over SKBR3 (WT) pAKT IC50
Method: SKBR3 or T47D cells are seeded in DMEM containing 10% FBS at 25k cells/well into 96-well cell culture format. […] 384 well plate is left overnight at room temperature before reading HTRF on an Envision plate reader. ND denotes value not determined with that assay for the specified compound; • for T47D (H1047R) selectivity over SKBR3 (WT): A denotes >20-fold; B denotes 20-fold≥value>5-fold; C denotes ≤5-fold. […] ND denotes value not determined with that assay for the specified compound.
experimental.readout: T47D pAKT S473 HTRF IC50 (H1047R): T47D (H1047R) selectivity over SKBR3 (WT)

COc1cccc(NC(C)c2cc(C)cn3c(=O)cc(N4Cc5ccccc5C4)nc23)c1CO (centres unmarked) [Compound 865] :: C (C denotes ≤5-fold)
Cc1cc([C@H](C)Nc2ccccc2C(=O)O)c2ncc(Cc3ccc(F)cc3)c(=O)n2c1 [Compound 914] :: C (C denotes ≤5-fold)
Cc1cc([C@H](C)Nc2ccccc2C(=O)O)c2nc(-c3cnc(C#N)c(Cl)c3)c(C)c(=O)n2c1 (single isomer, unassigned) [Compound 978] :: A (A denotes >20-fold)
CC(=O)Nc1nn(C)c2ccc(-c3cc(=O)n4cc(C)cc(C(C)Nc5ccccc5C(=O)O)c4n3)cc12 (centres unmarked) [Compound 792] :: C (C denotes ≤5-fold)

# context switch: different molecule, same T47D pAKT S473 HTRF IC50 (H1047R): T47D (H1047R) selectivity over SKBR3 (WT)
Q: Requested field: T47D pAKT S473 HTRF IC50 (H1047R): T47D (H1047R) selectivity over SKBR3 (WT). Item: Cc1cc([C@@H](C)Nc2ccccc2C(=O)O)c2nc(-c3ccc4c(c3)COC4)cc(=O)n2c1 [Compound 851]
Ans: A (A denotes >20-fold)

====

measurement.target: PI3Kα H1047R (T47D cells) (Homo sapiens, UniProt P42336, H1047R)
Construct: endogenous in cells; host or cells: T47D cells
assay: PI3Kα cellular assay: pAKT HTRF in T47D cells after EGF stimulation
Assay type: cell-based
measurement.context: selectivity T47D (H1047R) over SKBR3 (WT), pAKT HTRF
experimental.readout: T47D pAKT S473 HTRF IC50 (H1047R): T47D (H1047R) selectivity over SKBR3 (WT)

Cc1cc(C(C)Nc2ccccc2C(=O)O)c2nc(N3CCS(=O)(=O)CC3)cc(=O)n2c1 (stereo not shown) [Compound 137] :: C (C denotes ≤5-fold)
Cc1cc([C@H](C)Nc2ccccc2C(=O)O)c2nc(-c3ccc4[nH]c(=O)oc4c3)cc(=O)n2c1 [Compound 542] :: C (C denotes ≤5-fold)
Cc1cc([C@@H](C)Nc2ccccc2C(=O)O)c2nc(-c3cccc(F)c3)c(C)c(=O)n2c1 [Compound 1073] :: C (C denotes ≤5-fold)

====

measurement.target: PI3Kα H1047R (T47D cells) (Homo sapiens, UniProt P42336, H1047R)
Construct: endogenous in cells; host or cells: T47D cells
assay: PI3Kα cellular assay: pAKT HTRF in T47D cells after EGF stimulation
Assay type: cell-based
measurement.context: selectivity T47D (H1047R) over SKBR3 (WT), pAKT HTRF
experimental.readout: T47D pAKT S473 HTRF IC50 (H1047R): T47D (H1047R) selectivity over SKBR3 (WT)

Would you please look over these solved cases?
Cc1cc(C(C)Nc2ccccc2C(=O)O)c2nc(-c3ccncc3)cc(=O)n2c1 (single isomer, unassigned) [Compound 268] :: C (C denotes ≤5-fold)
Cc1cc([C@H](C)Nc2ccccc2)c2nc(-c3cc(C)c4oc(=O)[nH]c4c3)cc(=O)n2c1 :: C (C denotes ≤5-fold)
Cc1cc([C@@H](C)Nc2ccccc2)c2nc(-c3ccc(F)cc3)c(C)c(=O)n2c1 :: C (C denotes ≤5-fold)
Cc1cc([C@@H](C)Nc2ccccc2C(=O)O)c2nc(N3C[C@H](C)C[C@H](C)C3)cc(=O)n2c1 (single isomer, unassigned) :: A (A denotes >20-fold)

Q: For the record Cc1cc(C(C)Nc2ccccc2C(=O)O)c2nc(-c3cc(C)c4oc(=O)[nH]c4c3)cc(=O)n2c1 (stereo not drawn) , what value of T47D pAKT S473 HTRF IC50 (H1047R): T47D (H1047R) selectivity over SKBR3 (WT) is listed for PI3Kα H1047R (T47D cells) (Homo sapiens, UniProt P42336, H1047R)?
Ans: A (A denotes >20-fold)

Q: Request body: readout T47D pAKT S473 HTRF IC50 (H1047R): T47D (H1047R) selectivity over SKBR3 (WT), system PI3Kα H1047R (T47D cells) (Homo sapiens, UniProt P42336, H1047R), query Cc1cc(C(C)Nc2ccccc2C(=O)O)c2nc(N3CCN(C(=O)CN)CC3)cc(=O)n2c1 (stereo not drawn) . Return the value.
Ans: C (C denotes ≤5-fold)

Q: Query the reported T47D pAKT S473 HTRF IC50 (H1047R): T47D (H1047R) selectivity over SKBR3 (WT) for PI3Kα H1047R (T47D cells) (Homo sapiens, UniProt P42336, H1047R); item: Cc1cc(C(C)Nc2ccccc2-c2ccnnc2)c2nc(-c3ccc(C)c(Cl)c3)c(C)c(=O)n2c1 (stereo not drawn)
Ans: A (A denotes >20-fold)
